Test system: mTEFS fibroblasts autofluorescence, GFP-channel imaging, 3 days
ASSAY METHOD TEXT: compound fluorescence in GFP channel, mTEFS cells – imaging, mTEFS fibroblasts, cherry-pick, artefact control for X-chromosome reactivation project, dose response (AID 743396);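 active = fitted curve reaches a 40% rise in fluorescent cells at or below the top valid dose; inactive = opposite-direction effect, or the rest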
PARTICULARS: cells pretreated with 5-aza-dC
Your response should consist of one outcome taken from Yes (active), No (inactive)

Exercise: GET /call?item= Cc1ccc(NC(=O)/C=C/c2ccc([N+](=O)[O-])s2)c(C)c1 returns the recorded outcome of this test.
Key: Yes

Exercise: GET /call?item= Nc1c(C(=O)c2ccccc2)sc2nsc(SCCN3CCCC3)c12 returns the recorded outcome of this test.
Key: Yes

Exercise: GET /call?item= N#Cc1c(-c2ccccc2F)cc(C2CC2)nc1SCC(=O)c1cccs1 returns the recorded outcome of this test.
Key: Yes

Exercise: GET /call?item= COc1ccccc1-[n+]1c(C)cc(/C=C2\Sc3ccccc3N2C)cc1C returns the recorded outcome of this test.
Key: Yes

Exercise: GET /call?item= CC[n+]1c(/C=C/C=C/N(C(C)=O)c2ccccc2)sc2cc(OC)ccc21 returns the recorded outcome of this test.
Key: Yes

Exercise: GET /call?item= COC1=CC(=O)c2nc(Cl)ccc2C1=O returns the recorded outcome of this test.
Key: Yes

====

System: mTEFS fibroblasts autofluorescence, GFP-channel imaging, 3 days
ASSAY METHOD TEXT: compound fluorescence in GFP channel, mTEFS cells – imaging, mTEFS fibroblasts, cherry-pick, artefact control for X-chromosome reactivation project, dose response (AID 743396)
PARTICULARS: cells pretreated with 5-aza-dC
Activity calls are given as the source filed them.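 The calls were made as follows: active = fitted curve reaches a 40% rise in fluorescent cells at or below the top valid dose; inactive = opposite-direction effect, or the rest.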
Your response should consist of one outcome taken from active, inactive

INSERT INTO assay_data (molecule, group_label) VALUES
  ('CCN1CCc2c(sc(NC(=O)Nc3ccc(Cl)c(Cl)c3)c2C(N)=O)C1', 'active'),
  ('N#C/C(=C\c1ccc(N2CCCCC2)o1)C(=O)Nc1cccc(Br)c1', 'active'),
  ('C=CCN1C(=O)[C@@H]2Cc3c([nH]c4ccccc34)C(c3cc(OC)c(OC)c(OC)c3)N2C1=S (stereo partly specified)', 'active'),
  ('COc1ccc(C(=O)c2sc3nc(C)cc(-c4cccs4)c3c2N)cc1OC', 'active'),
  ('O=c1oc2cc(O)ccc2cc1-c1nc2c(s1)CCc1ccccc1-2', 'active');

Exercise: GET /call?item= CC(=O)Nc1sc(/C(C#N)=C/c2ccc(Cl)c(Cl)c2)nc1-c1ccc(C)cc1 returns the recorded outcome of this test.
Key: active

Exercise: GET /call?item= COC1C(CO)OC(n2c3c(Cl)cccc3c3c4c(c5c6cccc(Cl)c6[nH]c5c32)C(=O)NC4=O)C(O)C1O (stereo unspecified) returns the recorded outcome of this test.
Key: inactive

Exercise: GET /call?item= COc1ccc(/C=C/C(=O)c2ccc([N+](=O)[O-])o2)cc1OC returns the recorded outcome of this test.
Key: inactive

Exercise: GET /call?item= N#C/C(=C/c1ccc(-c2ccccc2)o1)c1nc(-c2cccs2)cs1 returns the recorded outcome of this test.
Key: active

Exercise: GET /call?item= Cc1ccccc1-c1ccc(C2[C@@H]3CN(Cc4cocn4)C[C@H]2N3)cc1 (stereo partly specified) returns the recorded outcome of this test.
Key: inactive

====

For each record, write down the corresponding % fluorescent cells increase.
ASSAY METHOD TEXT: compound fluorescence in GFP channel, mTEFS cells – imaging, mTEFS fibroblasts, cherry-pick, artefact control for X-chromosome reactivation project, dose response (AID 743396);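 as to % fluorescent cells increase: raw share of Hoechst-counted cells scored GFP positive without control normalization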
PARTICULARS: mTEFS fibroblasts autofluorescence, GFP-channel imaging, 3 days; at 19.5 µM (top of the series); cells pretreated with 5-aza-dC
One number for each entry, in %.

Look over these answered cases.
INSERT INTO assay_data (molecule, test_value) VALUES
  ('Cc1cc(=O)[nH]c(N/N=C/c2cc(C)n(CC(F)(F)F)c2C)n1', 0),
  ('C=Cc1cnc([N+](=O)[O-])n1C', 0.007),
  ('COc1ccc(S(=O)(=O)N(C)C[C@H]2Oc3ccc(NS(=O)(=O)c4ccc(F)cc4)cc3CC(=O)N([C@@H](C)CO)C[C@@H]2C)cc1', 0);

Each of the following entries comes with a recorded value; kindly state % fluorescent cells increase for each.
1. Brc1ccc(-c2cn3ccccc3n2)cc1
2. O=C(N/N=C/c1ccc([N+](=O)[O-])o1)c1cc2ccccc2o1
3. O=C(COC(=O)COc1cccc(C(F)(F)F)c1)NC1CCS(=O)(=O)C1 (stereo not given)
4. CCOc1ccc(C(Nc2cccnc2)c2cc(Cl)c3cccnc3c2O)cc1 (stereo not given)
5. COc1ccc(CCCc2nc3ccccc3[nH]2)cc1
6. CN1OC[C@@H]2CN(Cc3ccccc3)[C@H](c3cccc(N4CCOCC4)c3)C[C@@H]21
7. COC(=O)CCN1CCC(c2cc(-c3cccc(C(F)(F)F)c3)n[nH]2)CC1

Key:
[0, 1.73, 0.015, 0, -0.011, 0.013, 0]

====

ASSAY METHOD TEXT: compound fluorescence in GFP channel, mTEFS cells – imaging, mTEFS fibroblasts, cherry-pick, artefact control for X-chromosome reactivation project, dose response (AID 743396);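 as to % fluorescent cells increase: raw share of Hoechst-counted cells scored GFP positive without control normalization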
PARTICULARS: mTEFS fibroblasts autofluorescence, GFP-channel imaging, 3 days; at 19.5 µM (top of the series); cells pretreated with 5-aza-dC
PROPERTY: % fluorescent cells increase (%)
Give bare numbers, in %.

INSERT INTO assay_data (molecule_smiles, property, test_value) VALUES
  ('O=C(Nc1ccccc1N1CCCCC1)c1cnccn1', '% fluorescent cells increase', 0.039),
  ('COC(=O)c1cc(C(=O)N2CCN(c3ccccc3OC)CC2)cc([N+](=O)[O-])c1', '% fluorescent cells increase', 0),
  ('CO[C@@H]1CN(C)C(=O)c2ccc(NC(=O)Nc3cccc(Cl)c3)cc2OC[C@H](C)N(C(=O)Nc2c(C)noc2C)C[C@H]1C', '% fluorescent cells increase', 0.367);

Each of the following entries comes with a recorded value; kindly state % fluorescent cells increase for each.
1. COc1cc(CNc2nc3ccccc3n2C)cc(OC)c1OC
2. Cc1ccc(/C=C/C(=O)N2CCN(S(=O)(=O)/C=C/c3ccccc3)CC2)o1
3. Nc1ccccc1C#CC(=O)c1ccccc1
4. COC(=O)c1ccc(CNC(=O)COC(=O)c2cc(Cl)ccc2O)cc1
5. COc1ccc2c3c(n(C)c2c1)[C@H](CO)N(Cc1ccccc1F)CC31CCN(CC2CC2)CC1

Key:
1: 0; 2: 0.017; 3: 0; 4: 0; 5: -0.126

Each of the following entries comes with a recorded value; kindly state % fluorescent cells increase for each.
1. CC(C)N1C(=O)C(=O)N(CC(=O)N2CCc3ccccc32)C1=O
2. COc1ccc2c3c(n(C)c2c1)[C@@H](CO)N(C(=O)NC(C)C)CC31CN(C(C)=O)C1

Key:
0.029
-0.138

====

ASSAY METHOD TEXT: compound fluorescence in GFP channel, mTEFS cells – imaging, mTEFS fibroblasts, cherry-pick, artefact control for X-chromosome reactivation project, dose response (AID 743396);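 as to % fluorescent cells increase: raw share of Hoechst-counted cells scored GFP positive without control normalization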
PARTICULARS: mTEFS fibroblasts autofluorescence, GFP-channel imaging, 3 days; at 19.5 µM (top of the series); cells pretreated with 5-aza-dC
PROPERTY: % fluorescent cells increase (%)
Answers are plain numbers, in %.

Look over these answered cases.
INSERT INTO assay_data (molecule, u, test_value) VALUES
  ('CC(=O)N/C(N)=N/c1nc(=O)c2ccccc2s1', '%', 0.24),
  ('Cc1ccc(-c2csc(NC(=O)c3cccc([N+](=O)[O-])c3C(=O)O)n2)cc1', '%', 0),
  ('CC1CC(C)CN(C(=O)C(C)N2CCN(S(=O)(=O)c3ccccc3F)CC2)C1 (stereo unspecified)', '%', 0.338);

Each of the following entries comes with a recorded value; kindly state % fluorescent cells increase for each.
1. COC(=O)c1sc(-c2ccc(C(C)(C)C)cc2)cc1NC(=O)c1ccccc1C(=O)O
2. Cc1ccc(-c2[nH]c(=S)[nH]c(=O)c2C#N)cc1
3. CCN(CC)c1ccc(N=Cc2ccc([N+](=O)[O-])o2)cc1

Key:
0.032
0.007
0.026

Each of the following entries comes with a recorded value; kindly state % fluorescent cells increase for each.
1. O=C(CCl)N=c1sccn1Cc1ccc(Cl)cc1Cl
2. COc1ccc(C2C(=O)c3ccccc3C2=Nc2ccc(Br)cc2)cc1 (stereo unspecified)
3. O=C(Nc1ccccc1)N1C[C@@H]2[C@H](c3ccccc31)[C@H](CO)N2C(=O)c1ccccc1F

Key:
0
0.033
0.041

Each of the following entries comes with a recorded value; kindly state % fluorescent cells increase for each.
1. O=C1CSC(c2cccnc2)N1Cc1ccc(Cl)cc1Cl (stereo unspecified)
2. COc1ccc(Cl)cc1C(=O)Nc1ccccc1N1CCCCC1

Key:
1. 0
2. 2.45
